Molecular target: Glucocorticoid Receptor (GR) (Homo sapiens, UniProt P04150)
Construct: purchased Invitrogen P2893
Sequence (P04150 whole entry): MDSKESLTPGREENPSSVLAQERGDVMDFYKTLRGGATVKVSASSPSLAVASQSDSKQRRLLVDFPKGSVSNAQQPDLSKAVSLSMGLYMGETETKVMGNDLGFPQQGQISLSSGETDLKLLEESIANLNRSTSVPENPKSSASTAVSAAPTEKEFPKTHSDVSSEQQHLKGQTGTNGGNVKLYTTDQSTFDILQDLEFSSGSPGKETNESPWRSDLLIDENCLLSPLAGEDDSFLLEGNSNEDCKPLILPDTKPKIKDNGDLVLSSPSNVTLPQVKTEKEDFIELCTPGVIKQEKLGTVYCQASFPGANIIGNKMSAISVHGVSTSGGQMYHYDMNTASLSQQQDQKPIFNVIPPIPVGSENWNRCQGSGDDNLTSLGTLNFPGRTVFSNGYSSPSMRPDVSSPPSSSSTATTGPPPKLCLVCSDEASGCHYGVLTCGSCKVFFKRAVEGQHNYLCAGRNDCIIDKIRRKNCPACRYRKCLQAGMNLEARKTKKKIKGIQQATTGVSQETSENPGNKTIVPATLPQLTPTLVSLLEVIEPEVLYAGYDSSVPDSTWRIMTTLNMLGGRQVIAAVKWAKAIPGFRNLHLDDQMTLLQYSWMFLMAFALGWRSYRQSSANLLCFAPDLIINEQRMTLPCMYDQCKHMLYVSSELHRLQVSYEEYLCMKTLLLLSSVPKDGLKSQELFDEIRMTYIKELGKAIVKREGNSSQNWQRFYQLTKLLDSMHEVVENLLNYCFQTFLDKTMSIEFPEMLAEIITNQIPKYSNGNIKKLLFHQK
Assay: GR Fluorescence Polarization Assay (PolarScreen Glucocorticoid Receptor Competitor Assay, Red)
Conditions: IC50 class ranges, read-out: GR binding
pIC50: −log10 of the molar value.
Property: pIC50; scope: individual compounds

>  <Compound>
Cc1cc(Br)sc1C1SCCNc2c1c(-c1ccccn1)nn2C (stereo not shown)

>  <pIC50>
> 7.00

$$$$
>  <Compound>
Cc1cc(Cl)ccc1C1SCCNc2c1c(-c1ccccn1)nn2C (single isomer, unassigned)

>  <pIC50>
> 7.00

$$$$
>  <Compound>
Cc1cc(Br)ccc1C1SC(C)CNc2c1c(C1CC1)nn2C (stereo not shown)

>  <pIC50>
> 7.00

$$$$
>  <Compound>
Cn1nc(-c2nccs2)c2c1NCCSC2c1ccc(Cl)cc1Cl (stereo not shown)

>  <pIC50>
> 7.00

$$$$
>  <Compound>
Cc1cc(CCCO)ccc1[C@H]1SC[C@@H](C)Nc2c1c(-c1ccccn1)nn2C (single isomer, unassigned)

>  <pIC50>
5.00 to 6.00

$$$$
>  <Compound>
Cc1ncccc1NC(=O)c1ccc(C2SC(C)(C)CNc3c2c(C)nn3C)c(Cl)c1 (single isomer, unassigned) [M.9]

>  <pIC50>
6.00 to 7.00

$$$$
>  <Compound>
Cn1nc(-c2ccccn2)c2c1NCCSC2c1ccc(Cl)cc1Cl (stereo not shown)

>  <pIC50>
> 7.00

$$$$
>  <Compound>
Cn1nc(-c2ccccn2)c2c1NCCSC2c1ccc(Br)cc1 (stereo not shown)

>  <pIC50>
6.00 to 7.00

$$$$
>  <Compound>
Cn1nc(-c2nccs2)c2c1NCC(C)(C)SC2c1ccc(Cl)cc1Cl (stereo not shown)

>  <pIC50>
6.00 to 7.00

$$$$
>  <Compound>
Cc1cc(Cl)ccc1C1SCCNc2c1c(C1CCCO1)nn2C (stereo not shown)

>  <pIC50>
6.00 to 7.00

$$$$
>  <Compound>
Cc1cc(C(=O)Nc2cccnc2C)sc1C1SCCNc2c1c(-c1ccccn1)nn2C (stereo not shown)

>  <pIC50>
< 5.00

$$$$
>  <Compound>
Cc1cc(Br)ccc1C1SCC(C#N)Nc2c1c(-c1ccccn1)nn2C (racemic)

>  <pIC50>
> 7.00

$$$$
>  <Compound>
Cc1cc(C#N)ccc1C1SCC(C)Nc2c1c(-c1ccccn1)nn2C (stereo not shown)

>  <pIC50>
> 7.00

$$$$
>  <Compound>
Cc1cc(C(N)=O)ccc1C1SC(C)(C)CNc2c1c(C)nn2C (stereo not shown)

>  <pIC50>
5.00 to 6.00

$$$$
>  <Compound>
Cn1nc(-c2ccccn2)c2c1NCCSC2c1ccc(C(N)=O)cc1Cl (stereo not shown)

>  <pIC50>
6.00 to 7.00

$$$$
>  <Compound>
Cn1nc(-c2ccccn2)c2c1NCCSC2c1ccc(C(C)(C)O)cc1Cl (stereo not shown)

>  <pIC50>
5.00 to 6.00

$$$$
>  <Compound>
Cc1cc(S(C)(=O)=O)ccc1C1SC(C)(C)CNc2c1c(C)nn2C (stereo not shown)

>  <pIC50>
5.00 to 6.00

$$$$
>  <Compound>
Cn1nc(-c2ccccn2)c2c1NCCSC2c1ccc(Cl)cc1Br (stereo not shown)

>  <pIC50>
> 7.00

$$$$
>  <Compound>
CCn1nc(-c2ccccn2)c2c1NCCSC2c1ccc(C(=O)Nc2cccnc2Cl)cc1C (stereo not shown)

>  <pIC50>
> 7.00

$$$$
